Assay: Lipophilicity, log D of the compound by HPLC analysis
Format: physicochemical
Overview of reported logD across a group of molecules:
// keep it numeric: no unit symbol after the value

Known results for molecules:
[[record]]
molecule = "CCn1c(-c2cnc(C)nc2)nc2c(O[C@H]3CCN(C(=O)N4CC(OC)C4)C3)ncnc21"
measure = "logD"
val = 0.9

[[record]]
molecule = "CCC(=O)N1CC[C@H](Oc2ncnc3c2nc(-c2cnc(C)nc2)n3CC)C1"
measure = "logD"
val = 0.8

[[record]]
molecule = "CCn1c(-c2cnc(C)nc2)nc2c(O[C@H]3CCN(C(=O)C4CC4)C3)ncnc21"
measure = "logD"
val = 1

[[record]]
molecule = "CCn1c(-c2ccc(C(F)(F)F)nc2)nc2c(O[C@H]3CCN(C(=O)c4cocn4)C3)ncnc21"
measure = "logD"
val = 2

[[record]]
molecule = "CCn1c(-c2cnc(C)nc2)nc2c(N[C@H]3CCN(C(=O)c4cocn4)C3)ncnc21"
measure = "logD"
val = 0.6

[[record]]
molecule = "CCn1c(-c2cnc(C)nc2)nc2c(N[C@H]3CCN(C(=O)[C@H]4C[C@@H](OC)C4)C3)ncnc21"
measure = "logD"
val = 0.9

[[record]]
molecule = "CCn1c(-c2cnc(C)nc2)nc2c(O[C@H]3CCN(C(=O)c4cocn4)C3)ncnc21"
measure = "logD"
val = 0.7

[[record]]
molecule = "CCn1c(-c2cnc(C)nc2)nc2c(N[C@H]3CCN(C(=O)C4CCC4)C3)ncnc21"
measure = "logD"
val = 1.2

[[record]]
molecule = "CCn1c(-c2cnc(C)nc2)nc2c(N[C@H]3CCN(C(=O)C4CCOC4)C3)ncnc21 (some centres undefined)"
measure = "logD"
val = 0.6

[[record]]
molecule = "CCn1c(-c2cnc(C)nc2)nc2c(O[C@H]3CCN(C(=O)C4CCOCC4)C3)ncnc21"
measure = "logD"
val = 0.8


Consider CCn1c(-c2cnc(C)nc2)nc2c(N[C@H]3CCN(C(=O)C4CC4)C3)ncnc21 . Its measured logD is 0.8

Consider CCn1c(-c2ccc(C(F)(F)F)nc2)nc2c(N[C@H]3CCN(C(=O)C4CC4)C3)ncnc21 . Its measured logD is 2

Consider CCn1c(-c2cnc(C)nc2)nc2c(N[C@H]3CCN(C(=O)C4CCOCC4)C3)ncnc21 . Its measured logD is 0.7

Consider CCn1c(-c2ccc(C(F)(F)F)nc2)nc2c(O[C@H]3CCN(C(=O)N4CC(OC)C4)C3)ncnc21 . Its measured logD is 2.1

Consider CCn1c(-c2cnc(C)nc2)nc2c(O[C@H]3CCN(C(=O)C4CC(F)(F)C4)C3)ncnc21 . Its measured logD is 1.5

====

Overview of reported clearance across a group of compounds:
Test: Plasma clearance in Beagle dog at 0.25 mg/kg, iv or 0.5 mg/kg, po
Type: ADME, organism-based, Canis lupus familiaris
Answer shape: numeric part, then the unit.

Known results for compounds:
[[record]]
entry_smiles = "CCn1c(-c2ccc(C(F)(F)F)nc2)nc2c(O[C@H]3CCN(C(=O)N4CC(OC)C4)C3)ncnc21"
measure = "clearance"
val = "12 mL/min/kg"

[[record]]
entry_smiles = "CCn1c(-c2cnc(C)nc2)nc2c(N[C@H]3CCN(C(=O)C4CCC4)C3)ncnc21"
measure = "clearance"
val = "11 mL/min/kg"

[[record]]
entry_smiles = "CCn1c(-c2ccc(C(F)(F)F)nc2)nc2c(O[C@H]3CCN(C(=O)c4cocn4)C3)ncnc21"
measure = "clearance"
val = "5.6 mL/min/kg"

[[record]]
entry_smiles = "CCn1c(-c2cnc(C)nc2)nc2c(O[C@H]3CCN(C(=O)C4CC4)C3)ncnc21"
measure = "clearance"
val = "4.9 mL/min/kg"

[[record]]
entry_smiles = "CCn1c(-c2cnc(C)nc2)nc2c(O[C@H]3CCN(C(=O)[C@H]4C[C@@H](OC)C4)C3)ncnc21"
measure = "clearance"
val = "2.1 mL/min/kg"


Consider CCn1c(-c2cnc(C)nc2)nc2c(N[C@H]3CCN(C(=O)[C@H]4C[C@@H](OC)C4)C3)ncnc21 . Its measured clearance is 7.1 mL/min/kg

Consider CCn1c(-c2ccc(C(F)(F)F)nc2)nc2c(O[C@H]3CCN(C(=O)[C@H]4C[C@@H](OC)C4)C3)ncnc21 . Its measured clearance is 6.2 mL/min/kg

Consider CCn1c(-c2cnc(C)nc2)nc2c(O[C@H]3CCN(C(=O)c4cocn4)C3)ncnc21 . Its measured clearance is 9.3 mL/min/kg
